Each item that follows carries a reported GI50.
- System: EKVX
- test.name: NCI tumour cell line growth inhibition, 48 h
Calls of active or inactive are those of the source. Cut-off read from the data, not from the text of the source: active = GI50 up to about 1.1 µM and inactive = higher.

[
  {
    "chemical.string": "CC(C)(C)/N=N/C(C)(C)N=C=O",
    "target.system": "EKVX",
    "GI50": "99.8 µM (inactive)"
  },
  {
    "chemical.string": "O=S(=O)(O)c1ccc(/N=N\\c2ccc(/N=N/c3ccc(/C=C/c4ccc(/N=[N+](\\[O-])c5ccc(/C=C/c6ccc(/N=N/c7ccc(/N=N/c8ccc(S(=O)(=O)O)cc8)c8ccccc78)cc6S(=O)(=O)O)c(S(=O)(=O)O)c5)cc4S(=O)(=O)O)c(S(=O)(=O)O)c3)c3ccccc23)cc1",
    "target.system": "EKVX",
    "GI50": "> 100 µM (inactive)"
  },
  {
    "chemical.string": "COc1cc(CNc2nc3c(N)cc(C(F)(F)F)cc3nc2-c2ccccc2)cc(OC)c1OC",
    "target.system": "EKVX",
    "GI50": "3.41 µM (inactive)"
  }
]

Next compound, please.
Item `Clc1nc(NCCc2ccccc2)c2ncn(-c3ccccc3)c2n1` has what recorded GI50?
22.5 µM (inactive)

* * *

Each item that follows carries a reported GI50.
- Tested on: COLO 205
- test.name: NCI tumour cell line growth inhibition, 48 h
Calls of active or inactive are those of the source. No stated cut-off is given here; in the data, active = GI50 up to about 1.1 µM and inactive = higher.

Use these answered entries as a reference point.
[
  {
    "compound": "COc1c(OC)c(OC)c(C(=O)/C=C/c2ccccc2)c(OC)c1OC",
    "GI50": "14.2 µM (inactive)"
  },
  {
    "compound": "CCOC(=O)CC(=O)CSc1c(-c2ccccc2)c(=O)n(-c2ccccc2)c(=S)n1-c1ccccc1",
    "GI50": "> 100 µM (inactive)"
  },
  {
    "compound": "COC1=CC23CCCN2CCc2cc4c(cc2C3C1O)OCO4 (stereo not given)",
    "GI50": "24.5 µM (inactive)"
  },
  {
    "compound": "COc1ccc2[nH]cc(CCNC(=O)[C@H](Cc3ccc(O)cc3)NC(=O)[C@@H](NCC(F)(F)F)C(C)C)c2c1",
    "GI50": "41.9 µM (inactive)"
  },
  {
    "compound": "O=C(O)CCC(=O)C(=O)O",
    "GI50": "> 100 µM (inactive)"
  }
]

Item O=C1CCc2ccc(O)c(c2)Oc2ccc(cc2)C(Sc2ccccc2)CCO1 (stereo not given) has what recorded GI50?
17.3 µM (inactive)

Item `CCOC(=O)c1sc2c(C(=O)OCC)n3cc(C)cc(C)c3c2c1O` has what recorded GI50?
> 100 µM (inactive)

Item CCCCCCCCCCCCC(=O)OC(c1cnco1)c1nc(C(O)CC(O)C(O)C(C)O)co1 (stereo not given) has what recorded GI50?
0.273 µM (active)

Item `Cn1c(-c2ccc(/N=N/Nc3ccc(-c4n[nH]c(=S)n4C)cc3)cc2)n[nH]c1=S` has what recorded GI50?
56 µM (inactive)

Item CC(=O)O[C@]12CCC[C@H]1C1(O)C(O)CCC[C@H]12 (stereo not given in full) has what recorded GI50?
> 100 µM (inactive)

* * *

- Test system: 786-0
- test.name: NCI tumour cell line growth inhibition, 48 h
Active and inactive are the calls of the source. Rule as the data show it: active = GI50 up to about 1.1 µM and inactive = higher.
metric.name: GI50

Item CC(=O)Nc1ccc(C2SCc3nc4ccccc4n32)cc1 (stereo not given) has what recorded GI50?
56.8 µM (inactive)

Item `O=C(/C=C/c1cccc2ccccc12)c1ccccc1Cl` has what recorded GI50?
14 µM (inactive)

Item O=c1cc(CNC2CC3CCC2C3)[nH]c(=O)[nH]1 (stereo not given) has what recorded GI50?
> 100 µM (inactive)

Item `COc1cc2c(OC)c(c1)CCCC1=CC(=O)C=C(CCC2)C1=O` has what recorded GI50?
29 µM (inactive)

Item OCCN=C1c2ccccc2C2C(c3ccccc31)C1c3ccccc3C(=NCCO)c3ccccc3C21 (stereo not given) has what recorded GI50?
28.2 µM (inactive)
